# Tested on: A549
# experimentDescription: NCI tumour cell line growth inhibition, 48 h
Calls of active or inactive are those of the source. Cut-off read from the data, not from the text of the source: active = GI50 up to about 1.1 µM and inactive = higher.
Answer with one of the outcomes active, inactive

Worked examples follow.
{"compound": "O=C(/C=C/C1C(=O)NC(=O)NC1=O)CC(=O)C(=O)Nc1cc(Cl)c(Cl)cc1Cl", "system": "A549", "className": "inactive"}
{"compound": "CC(=O)O[C@H]1CC[C@H]2[C@@H]3CCc4cc(O)c(I)cc4[C@H]3CC[C@]12C", "system": "A549", "className": "inactive"}
{"compound": "O=c1nc(Oc2c(F)c(F)c(F)c(F)c2F)ccn1C1OC(CO)C(O)C1O (configuration not stated)", "system": "A549", "className": "inactive"}
{"compound": "C=C1CC2CC[C@@]34C[C@@H]5O[C@@H]6C(O[C@H]7CC[C@H](CC(=O)OC8[C@@H](C)C9OC%10C[C@]%11(C[C@@H]%12O[C@@]%13(C[C@@H](C)[C@@H]%12O%11)C[C@H](C)[C@@H]%11OC%12CC(C(O)CO)OC%12C[C@@H]%11O%13)OC%10CC9O[C@H]8C[C@H]8O[C@@H](CC[C@@H]1O2)C[C@@H](C)C8=C)O[C@@H]7[C@@H]6O3)C5O4 (some centres not stated)", "system": "A549", "className": "active"}
{"compound": "C/C(=N\\NC(=S)NC(C)(C)C)c1ccccn1", "system": "A549", "className": "active"}

// query So what was the verdict on `NCCCCNCCCNC(=O)c1csc(-c2nc(CCN)sc2Cl)n1` in this test?
// result inactive

// query Same for `O=[N+]([O-])/C(C(Cl)=C(Cl)Cl)=C(/Cl)Sc1ccccc1`
// result inactive

====

# System: ACHN
# experimentDescription: NCI tumour cell line growth inhibition, 48 h
Activity calls are given as the source filed them. No stated cut-off is given here; in the data, active = GI50 up to about 1.1 µM and inactive = higher.
The molecules listed here are annotated with their GI50.

Use the examples below as a reference point.
{"molecule": "CSC1=N/C(=C\\c2ccc(C)cc2)C(=O)N1CN1CCOCC1", "reportedValue": "35.4 µM (inactive)"}
{"molecule": "O=C1c2ccccc2C(=O)c2c(O)c(O)cc(O)c21 [PURPURIN]", "reportedValue": "27.4 µM (inactive)"}
{"molecule": "C=CCC1C(=O)CC2(C)C(CC=C)C(=O)CC12C (configuration not stated)", "reportedValue": "> 100 µM (inactive)"}

// query Find the recorded GI50 belonging to NC1C/C(=N\O)c2c(I)sc(I)c21 (configuration not stated) and report it.
// result 18.7 µM (inactive)

// query Same for COC(=O)/C(=N\O)C(C(=O)C=C(C)C)C(=O)C(=O)Nc1ccccc1C (configuration not stated)
// result > 100 µM (inactive)

// query Same for CCOC(=O)NNC1(SC)NC(=O)c2c(cc(Cl)oc2=O)O1 (configuration not stated)
// result 1.87 µM (inactive)

// query Same for CCOC(=O)/C=C(/C=C\COC1CCCCO1)c1ccccc1 (configuration not stated)
// result 48 µM (inactive)

// query Same for `COc1cc(NS(C)(=O)=O)ccc1N1Cc2c[nH]c3ccc4nccc1c4c23`
// result > 100 µM (inactive)

// query Same for `O=C1c2cc([N+](=O)[O-])cnc2S(=O)(=O)N1c1ccc(Oc2ccccc2)cc1`
// result > 100 µM (inactive)
